# procedure.text: MELAS cybrid and Rieske KO viability enhancers – cell-based, MELAS cybrids, Rieske KO mouse fibroblasts, CellTiter-Glo, primary screen (AID 1508586); also: test concentration not given here
# setup.conditions: Rieske KO mouse fibroblast survival, low glucose, CellTiter-Glo 72 h
Recorded z-score determines the group label, using lo = under -0.2, mid = from -0.2 up to 0.08, hi = 0.08 and over

In [3]: df
Out[3]:
                                    molecule  class_assignment
 0  CCC(=O)O[C@]1(C(=O)SCF)[C@H](C)C[C@H]2[C@@H]3C[C@H](F)C4=CC(=O)C=C[C@]4(C)[C@@]3(F)[C@@H](O)C[C@@]21C                hi
 1  COc1cccc(OC)c1C(=O)N[C@@H]1C(=O)N2[C@@H]1SC(C)(C)[C@@H]2C(=O)O                lo
 2  CN(CCCN1c2ccccc2CCc2ccccc21)CC(=O)c1ccc(Cl)cc1                hi
 3  NC(=NCCCCCCN=C(N)/N=C(\N)Nc1ccc(Cl)cc1)/N=C(\N)Nc1ccc(Cl)cc1               mid
 4  Cc1c(N(C)CS(=O)(=O)O)c(=O)n(-c2ccccc2)n1C                lo
 5                           O=C(O)c1ccccc1O               mid
 6  O=C(CCCCC(=O)Nc1c(I)cc(I)c(C(=O)O)c1I)Nc1c(I)cc(I)c(C(=O)O)c1I               mid
 7  CN1[C@@H]2CC[C@H]1CC(OC(=O)C(O)c1ccccc1)C2 (some centres not stated)                hi
 8  NCC1CCC(C(=O)O)CC1 (configuration not stated)                lo
 9          CC(C)N=C(N)/N=C(\N)Nc1ccc(Cl)cc1                hi
10  C#C[C@]1(O)CC[C@H]2[C@@H]3CCc4cc(OC)ccc4[C@H]3CC[C@@]21C                hi
11  O=C(O)c1ccccc1C(=O)Nc1ccc(S(=O)(=O)Nc2nccs2)cc1                hi
12                           O=c1cc(CO)occ1O               mid
13  O=C1[C@H]2CCCC[C@H]2C(=O)N1CCCCN1CCN(c2nsc3ccccc23)CC1                hi
14                    CC1=CC(=O)c2ccccc2C1=O                lo
15  C[C@H](NC(CCc1ccccc1)C(=O)O)C(=O)N1CCC[C@H]1C(=O)O (some centres not stated)                lo
16       COCCCC/C(=N\OCCN)c1ccc(C(F)(F)F)cc1                lo
17                   Oc1c(Br)cc(Br)c2cccnc12               mid
18          COc1c2occc2c(OC)c2c(=O)cc(C)oc12               mid
19  Cc1nc2ccc(CN(C)c3ccc(C(=O)N[C@@H](CCC(=O)O)C(=O)O)s3)cc2c(=O)[nH]1                lo
20                                   N=C(N)N               mid
21           Cc1cc(-c2ccccc2)nnc1NCCN1CCOCC1                hi
